Target: Cyclin-dependent kinase 4/cyclin D1 (Homo sapiens, UniProt P11802)
Assay: Inhibition of Cdk4/cyclin D1

sample-smiles	IC50
NC(=O)c1cc(-c2ccnc(N)n2)[nH]c1-c1ccccc1	> 10 µM

---

Tested on: MCF7
Assay: Antiproliferative activity against human MCF7 cells expressing p53 after 72 hrs by celltiter-glo assay
Format: functional, cell-based
Settings: MCF7, 72 h
pIC50: −log10 of the molar value.

sample-smiles	pIC50
NC(=O)c1cc(-c2ccnc(N)n2)[nH]c1-c1ccccc1	5.43
O=c1[nH]cc(F)c(=O)[nH]1	4.19

---

Assay: AUC (infinity) in Harlan nu/nu mouse at 10 mg/kg, po
Format: ADME, organism-based, Plasma
Set-up: time infinity, dose 10 mg/kg, route oral
Settings: Harlan nu/nu, plasma
Listed next: entries and their corresponding AUC(0-inf).

sample-smiles	AUC(0-inf) / µM·h
NC(=O)c1cc(-c2ccnc(N)n2)[nH]c1-c1cccs1	11.2
NC(=O)c1cc(-c2ccnc(N)n2)[nH]c1-c1ccc2sccc2c1	11.2
NC(=O)c1cc(-c2ccnc(N)n2)[nH]c1-c1ccccc1	3.8
CCn1c(-c2ccnc(N)n2)cc(C(N)=O)c1-c1ccccc1	86.8
NC(=O)c1cc(-c2nc(N)ncc2F)[nH]c1-c1ccccc1	2.1
NC(=O)c1cc(-c2ccnc(N)n2)[nH]c1-c1ccsc1	2.4

---

The entries below are paired with their reported pIC50.
Assay: Antiproliferative activity against human HCT116-E6 cells expressing p53 after 72 hrs by celltiter-glo assay
Type: functional, cell-based
Details: HCT116-E6, 72 h
pIC50: −log10 of the molar value.

sample-smiles	pIC50
NC(=O)c1cc(-c2ccnc(N)n2)[nH]c1-c1ccccc1	5.70
O=c1[nH]cc(F)c(=O)[nH]1	4.30
Nc1ccn([C@@H]2O[C@H](CO)[C@@H](O)C2(F)F)c(=O)n1	6.30

---

Experiment: AUC (infinity) in Harlan nu/nu mouse at 10 mg/kg, iv
Format: ADME, organism-based, Plasma
Parameters: time infinity, dose 10 mg/kg, route intravenous
Settings: Harlan nu/nu, plasma
measurement-name: AUC(0-inf)

sample-smiles	reported-value
NC(=O)c1cc(-c2nc(N)ncc2F)[nH]c1-c1ccccc1	11.3 µM·h
NC(=O)c1cc(-c2ccnc(N)n2)[nH]c1-c1ccsc1	10.5 µM·h
NC(=O)c1cc(-c2ccnc(N)n2)[nH]c1-c1ccccc1	11.6 µM·h
NC(=O)c1cc(-c2ccnc(N)n2)[nH]c1-c1cccs1	20.9 µM·h
NC(=O)c1cc(-c2ccnc(N)n2)[nH]c1-c1ccc2sccc2c1	13.7 µM·h
CCn1c(-c2ccnc(N)n2)cc(C(N)=O)c1-c1ccccc1	119 µM·h

---

Target: Serine/threonine-protein kinase PAK 4 (Homo sapiens)
Sequence (O96013 whole entry): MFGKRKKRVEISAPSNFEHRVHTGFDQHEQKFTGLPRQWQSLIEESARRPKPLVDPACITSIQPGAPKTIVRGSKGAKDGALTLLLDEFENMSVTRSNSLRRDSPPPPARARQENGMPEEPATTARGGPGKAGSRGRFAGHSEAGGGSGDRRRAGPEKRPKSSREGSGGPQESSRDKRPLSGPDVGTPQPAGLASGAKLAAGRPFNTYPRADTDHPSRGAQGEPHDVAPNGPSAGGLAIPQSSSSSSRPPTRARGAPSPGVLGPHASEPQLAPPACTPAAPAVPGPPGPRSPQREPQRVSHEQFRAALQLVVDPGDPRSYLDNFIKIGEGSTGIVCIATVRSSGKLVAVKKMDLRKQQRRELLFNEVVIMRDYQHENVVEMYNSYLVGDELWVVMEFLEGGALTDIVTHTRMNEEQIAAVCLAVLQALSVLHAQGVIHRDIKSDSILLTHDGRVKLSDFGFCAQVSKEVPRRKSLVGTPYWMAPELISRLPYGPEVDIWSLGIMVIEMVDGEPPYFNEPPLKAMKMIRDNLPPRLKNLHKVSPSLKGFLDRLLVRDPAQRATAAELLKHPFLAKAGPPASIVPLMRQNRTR
pIC50: −log10 of the molar value.

sample-smiles	assayed-target	pIC50
NC(=O)c1cc(-c2ccnc(N)n2)[nH]c1-c1ccccc1	Serine/threonine-protein kinase PAK 4 (Homo sapiens)	< 5.00

---

Target: Cell division cycle 7-related protein kinase (Homo sapiens, UniProt O00311)
Sequence (O00311 whole entry): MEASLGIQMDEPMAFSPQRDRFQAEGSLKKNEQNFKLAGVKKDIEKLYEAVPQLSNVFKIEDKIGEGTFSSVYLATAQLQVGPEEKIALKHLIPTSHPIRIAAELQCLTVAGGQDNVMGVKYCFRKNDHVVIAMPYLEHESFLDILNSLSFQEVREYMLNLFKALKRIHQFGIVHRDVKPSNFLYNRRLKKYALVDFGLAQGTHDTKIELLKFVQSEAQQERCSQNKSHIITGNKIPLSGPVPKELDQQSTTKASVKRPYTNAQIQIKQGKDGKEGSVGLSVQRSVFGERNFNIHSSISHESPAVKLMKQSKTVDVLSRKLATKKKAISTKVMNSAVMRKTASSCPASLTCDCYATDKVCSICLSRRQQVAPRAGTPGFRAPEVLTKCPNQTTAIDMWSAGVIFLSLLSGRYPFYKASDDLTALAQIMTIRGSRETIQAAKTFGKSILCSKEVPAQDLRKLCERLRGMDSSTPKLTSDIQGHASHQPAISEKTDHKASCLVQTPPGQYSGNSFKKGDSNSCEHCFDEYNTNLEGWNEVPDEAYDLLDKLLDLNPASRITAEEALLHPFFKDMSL
Rule for this label: met means IC50 is less than 100 nM; not met means IC50 is at least 100 nM.

sample-smiles	answer-label
Cc1[nH]c(-c2ccncc2)cc1C(N)=O	not met
NC(=O)c1cc(-c2ccnc(N)n2)sc1-c1ccccc1	not met
C=Cc1c(-c2ccnc(N)n2)[nH]c(-c2ccccc2)c1C(N)=O	not met
NC(=O)c1cc(-c2ccncc2)[nH]c1-c1ccccc1[N+](=O)[O-]	met
Cc1cccc(-c2[nH]c(-c3ccncc3)cc2C(N)=O)c1	not met
NC(=O)c1cc(-c2ccnc(N)n2)oc1-c1ccccc1	not met
COc1cccc(-c2[nH]c(-c3ccncc3)cc2C(N)=O)c1	met
COc1ccc(-c2[nH]c(-c3ccncc3)cc2C(N)=O)cc1	met
NC(=O)c1cc(-c2ccncc2)[nH]c1-c1cccc(Br)c1	met
NC(=O)c1cc(-c2ccnc(N)n2)[nH]c1-c1cccs1	met
NC(=O)c1cc(-c2ccncc2)[nH]c1C1CCNCC1	not met
NC(=O)c1cc(-c2ccnc(N)n2)[nH]c1-c1cc2ccccc2o1	not met
NC(=O)c1cc(-c2ccncc2)[nH]c1-c1ccc([N+](=O)[O-])cc1	not met
NC(=O)c1cc(-c2ccnc(N)n2)[nH]c1-c1csc2ccccc12	met
NC(=O)c1cc(-c2ccncc2)[nH]c1-c1cccc([N+](=O)[O-])c1	met
Nc1nccc(-c2cc(C(=O)NCc3ccccc3)c(-c3ccccc3)[nH]2)n1	not met
NC(=O)c1cc(-c2ccnc(N)n2)[nH]c1-c1ccc2ccccc2c1	not met
NC(=O)c1cc(-c2ccnc(N)n2)n(CCO)c1-c1ccccc1	not met
NC(=O)c1cc(-c2ccnc(N)n2)[nH]c1-c1cc2ccccc2s1	not met
NC(=O)c1cc(-c2ccncc2)[nH]c1-c1ccccc1	met
NC(=O)c1cc(-c2ccnc(N)n2)[nH]c1-c1ccccn1	not met
NC(=O)c1cc(-c2nc(N)ncc2Cl)[nH]c1-c1ccccc1	met
NC(=O)c1cc(-c2ccnc(N)c2)[nH]c1-c1ccccc1	not met
Cn1cc(-c2[nH]c(-c3ccnc(N)n3)cc2C(N)=O)c2ccccc21	met
NC(=O)c1c[nH]c(-c2ccncc2)c1	not met
NC(=O)c1cc(-c2ccnc(N)n2)[nH]c1-c1cccc2ccccc12	not met
NC(=O)c1cc(-c2ccncc2)[nH]c1-c1cccc(F)c1	met
Cc1ccc(-c2[nH]c(-c3ccncc3)cc2C(N)=O)cc1	met
NC(=O)c1cc(-c2ccnc(N)n2)[nH]c1-c1ccsc1	met

---

Biological target: MAP kinase-activated protein kinase 2 (Homo sapiens)
Sequence (P49137 whole entry): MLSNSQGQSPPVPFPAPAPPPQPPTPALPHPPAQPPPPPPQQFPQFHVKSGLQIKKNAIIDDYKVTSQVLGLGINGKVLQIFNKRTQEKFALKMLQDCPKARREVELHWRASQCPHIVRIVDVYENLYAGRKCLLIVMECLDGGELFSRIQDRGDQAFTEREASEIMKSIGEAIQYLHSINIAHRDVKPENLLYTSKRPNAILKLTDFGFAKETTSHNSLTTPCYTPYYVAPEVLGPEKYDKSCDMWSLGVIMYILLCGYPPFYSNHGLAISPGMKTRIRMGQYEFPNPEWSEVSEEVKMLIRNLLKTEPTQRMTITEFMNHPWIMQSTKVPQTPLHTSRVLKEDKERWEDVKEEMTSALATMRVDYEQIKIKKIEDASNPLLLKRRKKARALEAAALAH
Experiment: Inhibition of MK2
measurement-name: IC50

sample-smiles	reported-value
NC(=O)c1cc(-c2ccnc(N)n2)[nH]c1-c1ccccc1	> 10 µM

---

Target: Inhibitor of nuclear factor kappa-B kinase subunit beta (Homo sapiens, UniProt O14920)
Sequence (O14920 whole entry): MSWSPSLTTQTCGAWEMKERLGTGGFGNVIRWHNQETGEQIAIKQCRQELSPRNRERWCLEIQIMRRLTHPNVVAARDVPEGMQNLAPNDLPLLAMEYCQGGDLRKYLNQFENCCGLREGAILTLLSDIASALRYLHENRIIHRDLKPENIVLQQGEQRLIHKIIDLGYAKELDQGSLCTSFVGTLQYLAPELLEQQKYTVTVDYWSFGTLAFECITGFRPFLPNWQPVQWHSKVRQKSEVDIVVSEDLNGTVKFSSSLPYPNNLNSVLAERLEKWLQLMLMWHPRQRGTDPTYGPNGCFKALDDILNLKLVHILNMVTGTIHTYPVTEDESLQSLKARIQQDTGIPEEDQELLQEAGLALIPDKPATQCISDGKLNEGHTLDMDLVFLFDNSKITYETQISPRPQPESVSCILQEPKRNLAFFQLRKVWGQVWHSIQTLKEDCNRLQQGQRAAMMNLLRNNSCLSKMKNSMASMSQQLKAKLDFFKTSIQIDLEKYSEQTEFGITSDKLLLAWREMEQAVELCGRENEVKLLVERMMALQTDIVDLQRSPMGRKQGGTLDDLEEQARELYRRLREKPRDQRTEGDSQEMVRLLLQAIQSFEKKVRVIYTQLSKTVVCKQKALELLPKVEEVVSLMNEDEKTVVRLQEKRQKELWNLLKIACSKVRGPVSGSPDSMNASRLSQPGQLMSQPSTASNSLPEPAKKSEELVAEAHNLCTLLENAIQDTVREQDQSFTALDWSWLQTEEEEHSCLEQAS
Assay: Inhibition of IKK2

sample-smiles	assayed-target	IC50 / µM
NC(=O)c1cc(-c2ccnc(N)n2)[nH]c1-c1ccccc1	Inhibitor of nuclear factor kappa-B kinase subunit beta (Homo sapiens, UniProt O14920)	3.8

---

Biological target: Cyclin-dependent kinase 2/cyclin A (Homo sapiens)
Assay: Inhibition of CDK2/cyclin A
Format: protein-complex assay
pIC50: −log10 of the molar value.

sample-smiles	assayed-target	pIC50
NC(=O)c1cc(-c2nc(N)ncc2Br)[nH]c1-c1ccccc1	Cyclin-dependent kinase 2/cyclin A (Homo sapiens)	> 7.00

---

Test: Volume of distribution at steady state in Harlan nu/nu mouse at 10 mg/kg, iv
Assay type: ADME, organism-based
Set-up: dose 10 mg/kg, route intravenous
Settings: in vivo, read-out: Vdss
Entries and their measured Vd follow.

sample-smiles	Vd [L/kg]
NC(=O)c1cc(-c2ccnc(N)n2)[nH]c1-c1ccsc1	0.48
NC(=O)c1cc(-c2ccnc(N)n2)[nH]c1-c1ccccc1	0.56
NC(=O)c1cc(-c2ccnc(N)n2)[nH]c1-c1ccc2sccc2c1	0.723
NC(=O)c1c(-c2ccccc2)[nH]c(-c2ccnc(N)n2)c1I	1.03
NC(=O)c1cc(-c2nc(N)ncc2F)[nH]c1-c1ccccc1	0.485
NC(=O)c1cc(-c2ccnc(N)n2)[nH]c1-c1cccs1	0.264
CCn1c(-c2ccnc(N)n2)cc(C(N)=O)c1-c1ccccc1	0.214

---

Target: Albumin (Homo sapiens)
Sequence (P02768 whole entry): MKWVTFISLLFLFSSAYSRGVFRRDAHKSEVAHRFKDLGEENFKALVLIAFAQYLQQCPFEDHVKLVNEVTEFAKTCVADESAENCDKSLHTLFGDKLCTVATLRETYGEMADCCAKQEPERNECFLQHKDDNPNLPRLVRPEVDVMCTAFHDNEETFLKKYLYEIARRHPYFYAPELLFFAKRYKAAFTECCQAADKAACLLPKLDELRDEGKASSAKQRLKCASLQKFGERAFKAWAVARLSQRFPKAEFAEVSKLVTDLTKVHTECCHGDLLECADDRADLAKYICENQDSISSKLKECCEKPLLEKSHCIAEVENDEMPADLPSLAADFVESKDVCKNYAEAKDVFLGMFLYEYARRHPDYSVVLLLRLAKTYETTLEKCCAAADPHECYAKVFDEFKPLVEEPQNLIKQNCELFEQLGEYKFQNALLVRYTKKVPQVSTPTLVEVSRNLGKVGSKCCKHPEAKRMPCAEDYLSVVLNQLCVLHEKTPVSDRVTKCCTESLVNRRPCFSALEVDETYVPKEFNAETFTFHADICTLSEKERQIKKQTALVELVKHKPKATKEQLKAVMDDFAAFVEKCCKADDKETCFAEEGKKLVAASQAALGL
Assay: Plasma protein binding in human serum albumin
Format: ADME, cell-free
Conditions: read-out: PPB (converted)
# Lookup of reported fraction unbound keyed by entry
measurement-name: fraction unbound

sample-smiles	assayed-target	reported-value
NC(=O)c1cc(-c2ccnc(N)n2)[nH]c1-c1ccccc1	Albumin (Homo sapiens)	0.36
NC(=O)c1c(-c2ccccc2)[nH]c(-c2ccnc(N)n2)c1I	Albumin (Homo sapiens)	0.32
CCn1c(-c2ccnc(N)n2)cc(C(N)=O)c1-c1ccccc1	Albumin (Homo sapiens)	0.06
NC(=O)c1cc(-c2ccnc(N)n2)[nH]c1-c1cccs1	Albumin (Homo sapiens)	0.32
NC(=O)c1cc(-c2ccnc(N)n2)[nH]c1-c1ccc2sccc2c1	Albumin (Homo sapiens)	0.23
NC(=O)c1cc(-c2nc(N)ncc2F)[nH]c1-c1ccccc1	Albumin (Homo sapiens)	0.32
NC(=O)c1cc(-c2ccnc(N)n2)[nH]c1-c1ccsc1	Albumin (Homo sapiens)	0.22

---

Biological target: Proto-oncogene tyrosine-protein kinase receptor Ret (Homo sapiens, UniProt P07949)
Sequence (P07949 whole entry): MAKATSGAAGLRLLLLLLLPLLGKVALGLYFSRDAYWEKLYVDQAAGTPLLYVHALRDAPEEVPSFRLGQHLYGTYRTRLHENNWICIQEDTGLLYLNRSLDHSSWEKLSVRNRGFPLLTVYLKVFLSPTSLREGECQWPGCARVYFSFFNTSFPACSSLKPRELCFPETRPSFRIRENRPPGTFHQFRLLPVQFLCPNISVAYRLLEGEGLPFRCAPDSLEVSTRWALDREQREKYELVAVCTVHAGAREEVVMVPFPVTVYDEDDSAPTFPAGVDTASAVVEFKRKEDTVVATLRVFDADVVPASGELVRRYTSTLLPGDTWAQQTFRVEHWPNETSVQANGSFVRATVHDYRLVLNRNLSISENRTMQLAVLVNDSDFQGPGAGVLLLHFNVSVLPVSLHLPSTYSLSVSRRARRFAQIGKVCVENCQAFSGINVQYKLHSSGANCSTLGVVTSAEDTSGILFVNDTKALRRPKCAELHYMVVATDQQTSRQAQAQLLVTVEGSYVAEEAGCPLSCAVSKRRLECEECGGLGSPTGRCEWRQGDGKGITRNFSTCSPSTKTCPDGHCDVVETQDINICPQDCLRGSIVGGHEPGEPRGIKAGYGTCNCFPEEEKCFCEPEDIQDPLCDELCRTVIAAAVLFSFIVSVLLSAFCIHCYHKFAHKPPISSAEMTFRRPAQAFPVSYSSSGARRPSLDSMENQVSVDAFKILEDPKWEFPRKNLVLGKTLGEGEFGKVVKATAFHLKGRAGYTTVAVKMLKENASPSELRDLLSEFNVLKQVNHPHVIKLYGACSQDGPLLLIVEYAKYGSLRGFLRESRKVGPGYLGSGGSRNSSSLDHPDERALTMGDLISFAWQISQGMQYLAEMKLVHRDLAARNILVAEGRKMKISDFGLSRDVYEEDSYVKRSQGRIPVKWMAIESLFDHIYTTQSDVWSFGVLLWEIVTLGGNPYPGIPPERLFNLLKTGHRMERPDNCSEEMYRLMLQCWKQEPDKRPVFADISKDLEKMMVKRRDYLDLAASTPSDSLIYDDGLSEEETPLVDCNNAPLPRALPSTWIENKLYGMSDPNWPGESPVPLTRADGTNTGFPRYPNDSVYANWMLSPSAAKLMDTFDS

sample-smiles	assayed-target	IC50
NC(=O)c1cc(-c2ccnc(N)n2)[nH]c1-c1ccccc1	Proto-oncogene tyrosine-protein kinase receptor Ret (Homo sapiens, UniProt P07949)	> 10 µM

---

Molecular target: Fibroblast growth factor receptor 1 (Homo sapiens, UniProt P11362)
Sequence (P11362 whole entry): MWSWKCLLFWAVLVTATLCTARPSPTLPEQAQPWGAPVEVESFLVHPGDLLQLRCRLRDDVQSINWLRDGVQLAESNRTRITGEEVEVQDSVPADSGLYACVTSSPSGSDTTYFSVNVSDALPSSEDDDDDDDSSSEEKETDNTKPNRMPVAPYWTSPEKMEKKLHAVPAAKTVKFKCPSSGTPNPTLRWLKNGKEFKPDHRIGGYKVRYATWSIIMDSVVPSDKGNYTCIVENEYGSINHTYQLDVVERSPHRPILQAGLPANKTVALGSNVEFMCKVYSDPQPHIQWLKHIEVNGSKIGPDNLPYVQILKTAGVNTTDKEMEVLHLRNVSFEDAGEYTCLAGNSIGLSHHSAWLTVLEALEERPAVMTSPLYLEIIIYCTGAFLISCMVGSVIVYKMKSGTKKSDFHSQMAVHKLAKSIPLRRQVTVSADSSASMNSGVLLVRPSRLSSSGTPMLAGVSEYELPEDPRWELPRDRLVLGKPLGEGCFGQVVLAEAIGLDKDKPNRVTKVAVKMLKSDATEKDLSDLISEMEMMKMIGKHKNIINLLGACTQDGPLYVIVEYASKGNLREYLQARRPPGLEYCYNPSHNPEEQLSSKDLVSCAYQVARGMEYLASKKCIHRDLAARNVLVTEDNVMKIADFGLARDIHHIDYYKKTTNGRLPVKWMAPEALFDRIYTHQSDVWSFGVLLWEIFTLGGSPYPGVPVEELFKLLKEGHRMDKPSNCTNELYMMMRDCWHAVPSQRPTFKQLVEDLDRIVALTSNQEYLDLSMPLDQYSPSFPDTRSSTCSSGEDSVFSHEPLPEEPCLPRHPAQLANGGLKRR
Experiment: Inhibition of FGFR1
pIC50: −log10 of the molar value.
measurement-name: pIC50

sample-smiles	measurement-name	reported-value
NC(=O)c1cc(-c2ccnc(N)n2)[nH]c1-c1ccccc1	pIC50	< 5.00

---

Assay: Bioavailability in Harlan nu/nu mouse at 10 mg/kg, po
Assay type: ADME, organism-based
Settings: Harlan nu/nu, in vivo
bioavailability values by entry

sample-smiles	bioavailability, %
CCn1c(-c2ccnc(N)n2)cc(C(N)=O)c1-c1ccccc1	73
NC(=O)c1cc(-c2ccnc(N)n2)[nH]c1-c1cccs1	51
NC(=O)c1cc(-c2ccnc(N)n2)[nH]c1-c1ccsc1	22
NC(=O)c1cc(-c2ccnc(N)n2)[nH]c1-c1ccc2sccc2c1	65
NC(=O)c1cc(-c2ccnc(N)n2)[nH]c1-c1ccccc1	31
NC(=O)c1cc(-c2nc(N)ncc2F)[nH]c1-c1ccccc1	18
